These measurements were taken from patent US11292798B2.

Consider the following compounds and their measured ε (molecular extinction coefficient) readings.
experiment: absorption spectrum, light emission spectrum, molecular extinction coefficient and quantum efficiency in solvents; type: physicochemical; settings: solvent H2O

>  <COMPOUND>
CC1(C)C2=C3C=C(C(=O)[O-])C(=O)OC3CCN2c2ccccc21.[Na+] (centres unmarked) [Compound 5]

>  <ε (molecular extinction coefficient)>
50,000 Lmol^−1cm^−1

$$$$
>  <COMPOUND>
CC1(C)C2=C3C=C(CC(=O)[O-])C(=O)OC3CCN2c2ccc(S(=O)(=O)[O-])cc21.[Na+].[Na+] (centres unmarked) [Compound 64]

>  <ε (molecular extinction coefficient)>
26,000 Lmol^−1cm^−1

$$$$
>  <COMPOUND>
CC1(C)C2=C3C=C(C(=O)O)C(=O)OC3CCN2c2cc3c(cc21)-c1ccccc1C3(C)C (centres unmarked) [Compound 61]

>  <ε (molecular extinction coefficient)>
46,000 Lmol^−1cm^−1

$$$$
>  <COMPOUND>
CC1(C)C2=C3C=C(C(=O)[O-])C(=O)OC3CCN2c2ccc(S(=O)(=O)[O-])cc21.[Na+].[Na+] (centres unmarked) [Compound 2]

>  <ε (molecular extinction coefficient)>
45,000 Lmol^−1cm^−1

$$$$
>  <COMPOUND>
CC1(C)C2=C3C=CC(=O)OC3CCN2c2ccc(S(=O)(=O)[O-])cc21.[Na+] (centres unmarked) [Compound 3]

>  <ε (molecular extinction coefficient)>
28,000 Lmol^−1cm^−1

$$$$

* * *

test: absorption spectrum, light emission spectrum, molecular extinction coefficient and quantum efficiency in solvents; format: physicochemical; conditions: solvent DMSO
The molecules listed here are annotated with their φ (quantum efficiency).

>  <MOLECULE>
CC1(C)C2=C3C=C(CC(=O)[O-])C(=O)OC3CCN2c2ccc(S(=O)(=O)[O-])cc21.[Na+].[Na+] (stereo not drawn)

>  <φ (quantum efficiency)>
0.84

$$$$
>  <MOLECULE>
CC1(C)C2=C3C=C(C(=O)CCCC(=O)[O-])C(=O)OC3CCN2c2ccc3cc(S(=O)(=O)[O-])ccc3c21.[Na+].[Na+] (stereo not drawn)

>  <φ (quantum efficiency)>
0.935

$$$$
>  <MOLECULE>
COC(=O)C1=CC2=C3N(CCC2OC1=O)c1ccc2ccccc2c1C3(C)C (stereo not drawn)

>  <φ (quantum efficiency)>
0.928

$$$$
>  <MOLECULE>
CC1(C)C2=C3C=CC(=O)OC3CCN2c2ccc(S(=O)(=O)[O-])cc21.[Na+] (stereo not drawn)

>  <φ (quantum efficiency)>
0.645

$$$$
>  <MOLECULE>
COC(=O)C1=CC2=C3N(CCC2OC1=O)c1ccccc1C3(C)C (stereo not drawn)

>  <φ (quantum efficiency)>
0.900

$$$$
>  <MOLECULE>
CC1(C)C2=C3C=C(C(=O)[O-])C(=O)OC3CCN2c2ccc(S(=O)(=O)[O-])cc21.[Na+].[Na+] (stereo not drawn)

>  <φ (quantum efficiency)>
0.768

$$$$
>  <MOLECULE>
CC(=O)C1=CC2=C3N(CCC2OC1=O)c1ccc2ccccc2c1C3(C)C (stereo not drawn)

>  <φ (quantum efficiency)>
0.910

$$$$
>  <MOLECULE>
CCOC(=O)CCCC(=O)C1=CC2=C3N(CCC2OC1=O)c1ccc2ccccc2c1C3(C)C (stereo not drawn)

>  <φ (quantum efficiency)>
0.958

$$$$
>  <MOLECULE>
CC1(C)C2=C3C=C(C(=O)[O-])C(=O)OC3CCN2c2ccccc21.[Na+] (stereo not drawn)

>  <φ (quantum efficiency)>
0.913

$$$$
